Overview of recorded Emax (IL-2 pg/ml), NCI-H226 co-culture, Donor A for various binders
biological target: human CD137 on primary human CD8+ T cells (human, UniProt Q07011 24-255); assay: cell-based or functional assay
Sequence (Q07011 24-255): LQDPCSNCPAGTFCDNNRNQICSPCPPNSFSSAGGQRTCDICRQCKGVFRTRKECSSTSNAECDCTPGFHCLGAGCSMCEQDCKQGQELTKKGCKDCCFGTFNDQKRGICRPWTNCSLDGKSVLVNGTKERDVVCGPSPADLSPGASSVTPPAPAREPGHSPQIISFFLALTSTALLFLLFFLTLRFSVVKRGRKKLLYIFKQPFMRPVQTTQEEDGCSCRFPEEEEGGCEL
The figure you give is taken to be in pg/mL; do not add the unit.

Req: Give reported Emax (IL-2 pg/ml), NCI-H226 co-culture, Donor A value for FS22-172-003-AA/FS28-256-024 (bispecific antibody, human IgG1, kappa, L234A L235A, V domains shown, IgG1 mAb^2 with LALA) VH: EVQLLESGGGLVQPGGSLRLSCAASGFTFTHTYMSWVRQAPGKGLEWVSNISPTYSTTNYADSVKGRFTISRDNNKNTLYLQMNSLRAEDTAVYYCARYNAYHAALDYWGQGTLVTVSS VL: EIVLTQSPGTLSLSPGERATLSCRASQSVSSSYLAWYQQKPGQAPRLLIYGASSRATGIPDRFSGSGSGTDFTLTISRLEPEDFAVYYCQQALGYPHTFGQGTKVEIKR
Resp: 2120

Req: Give reported Emax (IL-2 pg/ml), NCI-H226 co-culture, Donor A value for FS22-172-003-AA/FS28-256-005 (bispecific antibody, human IgG1, kappa, L234A L235A, V domains shown, IgG1 mAb^2 with LALA) VH: EVQLLESGGGLVQPGGSLRLSCAASGFTFTETYMSWVRQAPGKGLEWVSNISPTYSTTNYADSVKGRFTISRDNSKNTLYLQMNSLRAEDTAVYYCARYNSYQGGLDYWGQGTLVTVSS VL: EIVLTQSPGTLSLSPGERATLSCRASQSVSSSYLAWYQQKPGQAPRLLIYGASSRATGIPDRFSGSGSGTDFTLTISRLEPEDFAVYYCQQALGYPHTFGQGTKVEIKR
Resp: 1100

Req: Give reported Emax (IL-2 pg/ml), NCI-H226 co-culture, Donor A value for FS22-172-003-AA/FS28-024-053 (bispecific antibody, human IgG1, kappa, L234A L235A, V domains shown, IgG1 mAb^2 with LALA) VH: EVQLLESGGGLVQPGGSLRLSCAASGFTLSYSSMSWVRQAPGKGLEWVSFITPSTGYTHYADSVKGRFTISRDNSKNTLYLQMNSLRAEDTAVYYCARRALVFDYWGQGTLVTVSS VL: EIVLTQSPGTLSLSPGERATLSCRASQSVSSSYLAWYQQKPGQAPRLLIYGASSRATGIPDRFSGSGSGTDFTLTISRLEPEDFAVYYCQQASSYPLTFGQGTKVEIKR
Resp: 1010

Req: Give reported Emax (IL-2 pg/ml), NCI-H226 co-culture, Donor A value for FS22-172-003-AA/FS28-024-052 (bispecific antibody, human IgG1, kappa, L234A L235A, V domains shown, IgG1 mAb^2 with LALA) VH: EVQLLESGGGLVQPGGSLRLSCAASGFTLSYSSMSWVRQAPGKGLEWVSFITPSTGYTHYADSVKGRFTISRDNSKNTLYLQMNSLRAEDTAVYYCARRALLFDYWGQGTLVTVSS VL: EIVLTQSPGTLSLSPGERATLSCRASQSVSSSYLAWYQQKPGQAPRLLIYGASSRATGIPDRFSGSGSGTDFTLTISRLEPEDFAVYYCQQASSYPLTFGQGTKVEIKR
Resp: 1070

Req: Give reported Emax (IL-2 pg/ml), NCI-H226 co-culture, Donor A value for FS22-172-003-AA/FS28-024 (bispecific antibody, human IgG1, kappa, L234A L235A, V domains shown, IgG1 mAb^2 with LALA; also called FS28-024 in CD137 mAb^2 format) VH: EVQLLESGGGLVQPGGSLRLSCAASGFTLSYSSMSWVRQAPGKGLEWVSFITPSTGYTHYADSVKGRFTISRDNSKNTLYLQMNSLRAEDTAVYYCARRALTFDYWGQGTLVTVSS VL: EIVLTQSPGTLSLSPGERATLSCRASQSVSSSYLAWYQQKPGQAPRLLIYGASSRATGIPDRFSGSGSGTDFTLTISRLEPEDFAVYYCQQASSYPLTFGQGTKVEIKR
Resp: 1120
